Target: Progesterone receptor (Homo sapiens)
Test: Efficacy as a function of maximal inhibition against human progesterone receptor B (hPR-B).
parameterMeasured: Efficacy (%)
Your answer is read as %, so omit the unit and give the number.

INPUT: Which Efficacy reading was recorded for the compound CC1(C)Cc2cc3c(C(F)(F)F)cc(O)nc3cc2NC1(C)C ?
OUTPUT: 98

INPUT: For the compound shown here, CC1(C)C=Cc2cc3c(C(F)(F)F)cc(O)nc3cc2N1 , give the reported Efficacy.
OUTPUT: 81

INPUT: Efficacy for CC1c2cc3c(C(F)(F)F)cc(O)nc3cc2NC(C)(C)C1(C)C (stereo unspecified) ?
OUTPUT: 93

INPUT: Given CCC1(CC)CCc2cc3c(C(F)(F)F)cc(O)nc3cc2N1 , state its recorded Efficacy.
OUTPUT: 81

INPUT: Quick one: Efficacy of CC(O)(CS(=O)(=O)c1ccc(F)cc1)C(=O)Nc1ccc(C#N)c(C(F)(F)F)c1 (stereo unspecified) [BICALUTAMIDE] ?
OUTPUT: 88

INPUT: Can you share its Efficacy? I mean this compound: CCCC1(C)CCc2cc3c(C(F)(F)F)cc(O)nc3cc2N1 (stereo unspecified)
OUTPUT: 86

====

Consider the following compounds; for each one, report its IC50.
Give the value in nM but do not write nM after it.

INPUT: For Androgen receptor (Homo sapiens, UniProt P10275), provide IC50 of CCC1Cc2cc3c(C(F)(F)F)cc(=O)[nH]c3cc2NC1(C)C (stereo not given) please.
OUTPUT: 46

INPUT: Item: Cc1c2c(cc3c(C(F)(F)F)cc(=O)n(C)c13)C(C)CC(C)(C)N2 (stereo not given) Test system: Androgen receptor (Homo sapiens, UniProt P10275) Read-out: IC50 Value: ?
OUTPUT: 31

INPUT: Which IC50 is reported with Androgen receptor (Homo sapiens, UniProt P10275) for this entry: CCCC1(C)CCc2cc3c(C(F)(F)F)cc(=O)[nH]c3cc2N1 (stereo not given) ?
OUTPUT: 42

INPUT: Quick check: IC50 on Androgen receptor (Homo sapiens, UniProt P10275), item CC1=C(C)C(C)(C)Nc2cc3[nH]c(=O)cc(C(F)(F)F)c3cc21 ?
OUTPUT: 68

INPUT: What measured IC50 is associated with Cn1c(=O)cc(C(F)(F)F)c2cc3c(cc21)NC(C)(C)CC3 on Androgen receptor (Homo sapiens, UniProt P10275)?
OUTPUT: 36

====

I'd appreciate it if you could supply Ki values for the items below.
Molecular target: Androgen receptor (Homo sapiens)
Sequence (P10275 whole entry): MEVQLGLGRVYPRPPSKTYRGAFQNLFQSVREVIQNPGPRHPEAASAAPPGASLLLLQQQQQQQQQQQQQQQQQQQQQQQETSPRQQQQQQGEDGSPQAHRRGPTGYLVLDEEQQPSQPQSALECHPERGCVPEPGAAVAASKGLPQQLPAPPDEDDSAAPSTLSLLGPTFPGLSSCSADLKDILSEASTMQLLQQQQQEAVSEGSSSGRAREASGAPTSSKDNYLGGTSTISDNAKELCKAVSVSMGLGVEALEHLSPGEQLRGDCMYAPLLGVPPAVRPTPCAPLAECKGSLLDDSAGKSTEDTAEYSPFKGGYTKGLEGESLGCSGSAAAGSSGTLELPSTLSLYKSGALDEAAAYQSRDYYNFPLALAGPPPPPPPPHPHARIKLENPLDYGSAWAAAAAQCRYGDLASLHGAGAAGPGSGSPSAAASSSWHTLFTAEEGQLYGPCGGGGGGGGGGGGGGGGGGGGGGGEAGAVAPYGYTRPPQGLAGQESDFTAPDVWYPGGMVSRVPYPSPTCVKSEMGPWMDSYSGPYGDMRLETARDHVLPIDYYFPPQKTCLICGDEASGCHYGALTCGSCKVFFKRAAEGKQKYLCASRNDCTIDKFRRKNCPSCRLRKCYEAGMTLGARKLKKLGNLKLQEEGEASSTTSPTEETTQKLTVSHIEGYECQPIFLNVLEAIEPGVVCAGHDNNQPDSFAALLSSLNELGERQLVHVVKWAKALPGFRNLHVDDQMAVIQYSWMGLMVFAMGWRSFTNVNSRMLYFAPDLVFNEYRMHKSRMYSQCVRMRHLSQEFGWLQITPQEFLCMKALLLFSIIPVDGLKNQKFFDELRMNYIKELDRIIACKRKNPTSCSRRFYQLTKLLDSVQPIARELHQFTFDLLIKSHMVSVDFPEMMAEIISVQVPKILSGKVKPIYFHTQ
Report only the number, with the unit nM understood.

INPUT: Entry CCCC1(C)CCc2cc3c(C(F)(F)F)cc(=O)[nH]c3cc2N1 (stereo unspecified) has what Ki?
OUTPUT: 69

INPUT: Sample Oc1cc(C(F)(F)F)c2cc3c(cc2n1)NC1(CCCCC1)CC3 — what was its Ki?
OUTPUT: 9

INPUT: Give its Ki value. Item: Cn1c(=O)cc(C(F)(F)F)c2cc3c(cc21)NC(C)(C)CC3
OUTPUT: 56

INPUT: Quick check: Ki of CC1=CC(C)(C)Nc2cc3c(cc21)c(C(F)(F)F)cc(=O)n3C ?
OUTPUT: 81

INPUT: Given the compound CC1CC(C)(C)Nc2cc3c(cc21)c(C(F)(F)F)cc(=O)n3C (stereo unspecified) , what is its reported Ki?
OUTPUT: 46

INPUT: Ki for CCC1CC(C)(C)Nc2cc3nc(O)cc(C(F)(F)F)c3cc21 (stereo unspecified) ?
OUTPUT: 54

====

Biological target: Progesterone receptor (Homo sapiens) (UniProt P06401)
Sequence (P06401 whole entry): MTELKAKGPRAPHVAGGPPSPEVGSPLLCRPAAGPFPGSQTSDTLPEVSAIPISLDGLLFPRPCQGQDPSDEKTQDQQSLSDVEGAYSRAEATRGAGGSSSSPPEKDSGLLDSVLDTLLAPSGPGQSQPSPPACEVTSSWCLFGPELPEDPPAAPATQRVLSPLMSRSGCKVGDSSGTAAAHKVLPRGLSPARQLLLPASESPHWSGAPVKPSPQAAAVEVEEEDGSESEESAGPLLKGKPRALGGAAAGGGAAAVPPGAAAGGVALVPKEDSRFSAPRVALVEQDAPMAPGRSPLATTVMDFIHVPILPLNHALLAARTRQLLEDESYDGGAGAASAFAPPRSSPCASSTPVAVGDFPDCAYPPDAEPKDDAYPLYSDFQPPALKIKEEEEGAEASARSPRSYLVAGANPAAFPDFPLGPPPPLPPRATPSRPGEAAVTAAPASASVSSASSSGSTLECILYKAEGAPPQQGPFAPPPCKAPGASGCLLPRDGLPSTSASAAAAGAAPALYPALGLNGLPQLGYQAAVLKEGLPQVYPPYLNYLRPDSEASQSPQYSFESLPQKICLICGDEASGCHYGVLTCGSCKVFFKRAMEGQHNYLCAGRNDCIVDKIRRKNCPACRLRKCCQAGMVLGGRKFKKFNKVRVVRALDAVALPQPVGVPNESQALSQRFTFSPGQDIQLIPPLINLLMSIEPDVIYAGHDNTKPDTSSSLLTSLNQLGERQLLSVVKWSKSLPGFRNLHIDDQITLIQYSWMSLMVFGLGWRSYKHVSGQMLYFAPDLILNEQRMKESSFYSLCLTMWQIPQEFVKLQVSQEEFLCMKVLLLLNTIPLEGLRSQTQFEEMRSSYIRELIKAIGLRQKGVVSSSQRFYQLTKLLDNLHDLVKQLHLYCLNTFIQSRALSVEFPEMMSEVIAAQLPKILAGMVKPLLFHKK
Assay: Efficacy as a function of maximal inhibition against human progesterone receptor B (hPR-B).
parameterMeasured: Efficacy

INPUT: Fill blank: measured Efficacy of the compound CCC1(C)CCc2cc3c(C(F)(F)F)cc(O)nc3cc2N1 (centres undefined) is ____.
OUTPUT: 91%

INPUT: # get_value(readout='Efficacy', item= Cn1c(=O)cc(C(F)(F)F)c2cc3c(cc21)N1CCCC1(C)CC3 (centres undefined) )
OUTPUT: 84%

INPUT: Query (compound): CCC1CC(C)(C)Nc2cc3nc(O)cc(C(F)(F)F)c3cc21 (centres undefined) ; field requested: Efficacy
OUTPUT: 74%

INPUT: Efficacy lookup needed for Oc1cc(C(F)(F)F)c2cc3c(cc2n1)NC1(CCCCC1)CC3 , thanks.
OUTPUT: 94%

INPUT: Quick one: Efficacy of CC1CC(C)(C)Nc2cc3nc(O)cc(C(F)(F)F)c3cc21 (centres undefined) ?
OUTPUT: 86%

INPUT: Any idea what its Efficacy is? The compound is C[C@H]1c2cc3c(C(F)(F)F)cc(O)nc3cc2NC(C)(C)[C@H]1C
OUTPUT: 95%

INPUT: Looking for the measured Efficacy of CC1=CC(C)(C)Nc2cc3nc(O)cc(C)c3cc21 , can you help?
OUTPUT: 83%

INPUT: I am curious: what Efficacy value has been reported for CC1=CC(C)(C)Nc2cc3c(cc21)c(C(F)(F)F)cc(=O)n3C ?
OUTPUT: 88%

INPUT: Which Efficacy value belongs to CC1=CC(C)(C)N(C)c2cc3c(cc21)c(C(F)(F)F)cc(=O)n3C ?
OUTPUT: 91%

====

Target: Androgen receptor (Homo sapiens)
pIC50: −log10 of the molar value.
Label true (1) when pIC50 >= 7; otherwise false (0).

INPUT: Quick check: does CC1=CC(C)(C)N(C)c2cc3c(cc21)c(C(F)(F)F)cc(=O)n3C have pIC50 greater than or equal to 7?
OUTPUT: true (1)

INPUT: Entry Cc1c2c(cc3c(C(F)(F)F)cc(=O)[nH]c13)C(C)CC(C)(C)N2 (configuration not stated) : is its pIC50 no less than 7?
OUTPUT: true (1)

INPUT: Exam item: decide whether the reported pIC50 for CC1(C)C=Cc2cc3c(C(F)(F)F)cc(O)nc3cc2N1 is at least 7.
OUTPUT: true (1)

INPUT: Given the entry CC1=CC(C)(C)Nc2cc3[nH]c(=O)cc(C)c3cc21 , answer whether its pIC50 meets or surpasses 7.
OUTPUT: true (1)

INPUT: Hi team, for CC1Cc2cc3c(C(F)(F)F)cc(=O)[nH]c3cc2NC1(C)C (configuration not stated) , is the recorded pIC50 at or above 7?
OUTPUT: true (1)

INPUT: Check if pIC50 >= 7 (inclusive). Item: CCn1c(=O)cc(C(F)(F)F)c2cc3c(cc21)NC(C)(C)C=C3C
OUTPUT: false (0)

====

Give measured pKi for each item. Keep answers brief.
Remember the convention: pKi equals -log10 of concentration in molar.

INPUT: Reported pKi for Androgen receptor (Homo sapiens), given CC1c2cc3c(C(F)(F)F)cc(O)nc3cc2NC(C)(C)C1(C)C (configuration not stated) ?
OUTPUT: 6.45

INPUT: // fetch Androgen receptor (Homo sapiens) pKi for CC1=CC(C)(C)N(C)c2cc3nc(O)cc(C(F)(F)F)c3cc21
OUTPUT: 6.16

INPUT: Form field: pKi recorded for CCC1Cc2cc3c(C(F)(F)F)cc(=O)[nH]c3cc2NC1(C)C (configuration not stated) with Androgen receptor (Homo sapiens) (enter value)
OUTPUT: 6.60

INPUT: Item: CN1c2cc3c(cc2CCC1(C)C)c(C(F)(F)F)cc(=O)n3C Test system: Androgen receptor (Homo sapiens) Read-out: pKi Value: ?
OUTPUT: 7.77

INPUT: Which pKi is reported with Androgen receptor (Homo sapiens) for this entry: Cc1c2c(cc3c(C(F)(F)F)cc(=O)n(C)c13)C(C)CC(C)(C)N2 (configuration not stated) ?
OUTPUT: 7.40

INPUT: Recorded pKi for CC1=C(C)C(C)(C)Nc2cc3[nH]c(=O)cc(C(F)(F)F)c3cc21 with Androgen receptor (Homo sapiens), please?
OUTPUT: 6.57

INPUT: Enter reported pKi observed with Androgen receptor (Homo sapiens) for CC1=CC(C)(C)Nc2cc3[nH]c(=O)cc(C)c3cc21
OUTPUT: 7.21

Where these numbers come from: ChEMBL document CHEMBL1131477
